In this section, each of the compounds is paired with its reported growth.
Tested on: SK-OV-3 ovarian
Test: NCI-60 one-dose screen, 48 h (100 = growth as untreated, 0 = no growth, -100 = all killed)
Conditions: 10 µM unless noted
Method: Growth inhibition of the SK-OV-3 human tumor cell line is measured as a screen for anti-cancer activity. Cells are grown in 96 well plates and exposed to the test compound for 48 hours. Compounds are tested at a single concentration, which is 10^-5 M for most compounds. The reported endpoint is percent growth (GI% or GIPRCNT), where numbers from 0 - 100% represent growth inhibition, and numbers from -100% - 0 represent cell death. For example, a value of 40 represents 60% growth inhibition. […]
The panel holds about 83,000 compounds, 20% with a hit somewhere; the sample as a whole holds those more often. Active and inactive are the calls of the source. Rule for the calls: active = growth percent below 10; inactive = the rest.

COC1=C(Br)C(=O)C(OC)=C(Br)C1=O	110% (inactive)
CCc1ccc(-c2ccc(Nc3ccccc3)nn2)cc1S(N)(=O)=O	96.8% (inactive)
O=C(/C(=C(\C(=O)c1ccccc1)c1ccccc1)c1ccccc1)c1ccccc1	82.5% (inactive)

Query block: growth lookup needed for `O=C1/C(=C\c2ccc(Br)o2)SC(=S)N1CCc1ccc(O)cc1` , thanks.
Result block: 86.5% (inactive)

Data provenance: PubChem BioAssay (NCI)
